target: UniProt:P07711
Sequence (P07711 whole entry): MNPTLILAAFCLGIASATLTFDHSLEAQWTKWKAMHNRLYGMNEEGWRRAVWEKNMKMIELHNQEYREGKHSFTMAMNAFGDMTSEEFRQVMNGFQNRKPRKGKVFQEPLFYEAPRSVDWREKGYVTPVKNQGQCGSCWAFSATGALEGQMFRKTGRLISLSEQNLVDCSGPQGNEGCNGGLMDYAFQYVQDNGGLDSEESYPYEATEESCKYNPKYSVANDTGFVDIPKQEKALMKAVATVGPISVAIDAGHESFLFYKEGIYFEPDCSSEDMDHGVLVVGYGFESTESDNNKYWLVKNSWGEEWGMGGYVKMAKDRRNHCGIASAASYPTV
measured-quantity: pIC50
Give bare numbers, as −log10 of the molar value.

[in] Tell us which pIC50 value is on record for CC(C)C[C@H](NC(=O)OCc1ccccc1)C(=O)N[C@@H](C[C@@H]1CCNC1=O)C(O)S(=O)(=O)O (stereo partly specified)
[out] 8.74

----------
molecular target: UniProtKB P08684; experiment: Metabolic stability assessed as CYP3A4 (unknown origin) mediated oxidation by measuring remaining parent compound at 50 uM after 2 hrs in presence of NADPH by LC-MS analysis; assay type: ADME; conditions: CYP3A4 enzyme, read-out: Stability
Field: remaining at 2 h, 50 µM. Provide a value for each of the molecules that follow.
Answers are plain numbers, in %.

Some molecules with known remaining at 2 h, 50 µM results, for comparison:
{"molecule": "COc1cccc2[nH]c(C(=O)N[C@@H](CC(C)C)C(=O)N[C@@H](Cc3cscn3)C(O)S(=O)(=O)O)cc12 (some centres undefined)", "assayed-system": "UniProtKB P08684", "measured-quantity": "remaining at 2 h, 50 µM", "unit-symbol": "%", "result-value": 62}
{"molecule": "CC(C)C[C@H](NC(=O)OCc1ccccc1)C(=O)N[C@@H](C[C@@H]1CCNC1=O)C(O)S(=O)(=O)O (some centres undefined)", "assayed-system": "UniProtKB P08684", "measured-quantity": "remaining at 2 h, 50 µM", "unit-symbol": "%", "result-value": 91}
{"molecule": "CC(C)C[C@H](NC(=O)OCc1cccc(F)c1)C(=O)N[C@@H](Cc1cscn1)C(O)S(=O)(=O)O (some centres undefined)", "assayed-system": "UniProtKB P08684", "measured-quantity": "remaining at 2 h, 50 µM", "unit-symbol": "%", "result-value": 43}

Now, please, on to the next molecule.
[in] Tell us which remaining at 2 h, 50 µM value is on record for COc1cccc2[nH]c(C(=O)N[C@@H](CC(C)C)C(=O)N[C@@H](CC3CCC3)C(O)S(=O)(=O)O)cc12 (some centres undefined)
[out] 99

----------
assay: Cytotoxicity against african green monkey Vero E6 cells incubated for 24 hrs by CellTiter-Glo luminescence cell viability assay; assay type: toxicity, cell-based, Vero C1008; conditions: chlorocebus sabaeus
Field: CC50 at 24 h. Provide a value for each of the molecules that follow.

Some molecules with known CC50 at 24 h results, for comparison:
{"molecule": "CC(C)C[C@H](NC(=O)OCc1ccccc1)C(=O)N[C@@H](C[C@@H]1CCNC1=O)C(O)S(=O)(=O)O (stereo partly drawn)", "CC50 at 24 h": "> 200 µM"}
{"molecule": "CC(C)(C)[C@H](NC(=O)C(F)(F)F)C(=O)N1C[C@H]2[C@@H]([C@H]1C(=O)N[C@H](C#N)C[C@@H]1CCNC1=O)C2(C)C", "CC50 at 24 h": "> 100 µM"}

Now, please, on to the next molecule.
[in] Tell us which CC50 at 24 h value is on record for CC(C)C[C@@H](C(=O)N[C@@H](C[C@@H]1CCNC1=O)C(O)S(=O)(=O)O)N(C)C(=O)OCc1ccccc1 (stereo partly drawn)
[out] > 50 µM

----------
test: Cytotoxicity against human A549-hACE2-TMPRSS2 cells incubated for 24 hrs by CellTiter-Glo luminescence cell viability assay; format: toxicity, cell-based
measured-quantity: CC50 at 24 h

Some compounds with known CC50 at 24 h results, for comparison:
{"compound": "CC(C)C[C@H](NC(=O)OCc1ccccc1)C(=O)N[C@@H](C[C@@H]1CCNC1=O)C(O)S(=O)(=O)O (some centres not stated)", "result-value": "> 200 µM"}
{"compound": "CC(C)C[C@H](NC(=O)OCc1cccc(F)c1)C(=O)N[C@@H](Cc1cscn1)C(O)S(=O)(=O)O (some centres not stated)", "result-value": "> 50 µM"}

Return reported CC50 at 24 h values for all items listed beneath this line.
1. CC(C)(C)NC(=O)N[C@H](C(=O)N1C[C@H]2[C@@H]([C@H]1C(=O)NC(CC1CCC1)C(=O)C(N)=O)C2(C)C)C(C)(C)C (some centres not stated) [BOCEPREVIR]
2. CC(C)C[C@@H](C(=O)N[C@@H](C[C@@H]1CCNC1=O)C(O)S(=O)(=O)O)N(C)C(=O)OCc1ccccc1 (some centres not stated)
3. CC(C)(C)[C@H](NC(=O)C(F)(F)F)C(=O)N1C[C@H]2[C@@H]([C@H]1C(=O)N[C@H](C#N)C[C@@H]1CCNC1=O)C2(C)C
4. COc1cccc2[nH]c(C(=O)N[C@@H](CC(C)C)C(=O)N[C@@H](CC3CCC3)C(O)S(=O)(=O)O)cc12 (some centres not stated)
5. COc1cccc2[nH]c(C(=O)N[C@@H](CC(C)C)C(=O)N[C@@H](Cc3cscn3)C(O)S(=O)(=O)O)cc12 (some centres not stated)

[out]
1. > 50 µM
2. > 50 µM
3. > 100 µM
4. > 50 µM
5. > 50 µM

----------
target: CYP3A4 (Homo sapiens); test: Metabolic stability assessed as CYP3A4 (unknown origin) mediated oxidation by measuring remaining parent compound at 50 uM pretreated for 2 hrs and once again incubated with CYP3A4 for additional 2 hrs in presence of NADPH by LC-MS analysis; assay type: ADME; details: CYP3A4 enzyme, read-out: Stability
Sequence (P08684 whole entry): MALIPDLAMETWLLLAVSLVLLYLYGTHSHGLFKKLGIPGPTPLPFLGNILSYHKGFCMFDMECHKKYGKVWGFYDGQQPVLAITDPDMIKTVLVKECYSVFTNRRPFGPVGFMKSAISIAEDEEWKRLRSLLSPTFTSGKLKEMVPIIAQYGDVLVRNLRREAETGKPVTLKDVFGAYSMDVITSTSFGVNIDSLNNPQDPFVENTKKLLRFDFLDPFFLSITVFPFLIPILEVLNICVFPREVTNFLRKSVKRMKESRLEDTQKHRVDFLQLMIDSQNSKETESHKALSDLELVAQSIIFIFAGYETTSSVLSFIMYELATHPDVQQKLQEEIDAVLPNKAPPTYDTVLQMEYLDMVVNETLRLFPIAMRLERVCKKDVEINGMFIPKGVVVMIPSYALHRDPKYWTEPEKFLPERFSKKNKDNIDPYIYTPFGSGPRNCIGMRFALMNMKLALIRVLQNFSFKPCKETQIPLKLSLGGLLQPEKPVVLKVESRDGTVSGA
Field: remaining at 4 h, 50 µM. Provide a value for each of the molecules that follow.
Numbers only, in %.

{"molecule": "COc1cccc2[nH]c(C(=O)N[C@@H](CC(C)C)C(=O)N[C@@H](CC3CCC3)C(O)S(=O)(=O)O)cc12 (some centres undefined)", "assayed-system": "CYP3A4 (Homo sapiens)", "measured-quantity": "remaining at 4 h, 50 µM", "unit-symbol": "%", "result-value": 94}

Return reported remaining at 4 h, 50 µM values for all items listed beneath this line.
1. CC(C)C[C@H](NC(=O)OCc1ccccc1)C(=O)N[C@@H](C[C@@H]1CCNC1=O)C(O)S(=O)(=O)O (some centres undefined)
2. COc1cccc2[nH]c(C(=O)N[C@@H](CC(C)C)C(=O)N[C@@H](Cc3cscn3)C(O)S(=O)(=O)O)cc12 (some centres undefined)
3. CC(C)C[C@H](NC(=O)OCc1cccc(F)c1)C(=O)N[C@@H](Cc1cscn1)C(O)S(=O)(=O)O (some centres undefined)

[out]
[77, 55, 40]

----------
system: SARS-CoV-2; test: Antiviral activity against SARS-CoV2 CANADA/VIDO 01/2020 infected in Vero/TMPRSS2 cells assessed as reduction in intracellular RNA level by qRT-PCR assay; assay type: functional, organism-based; conditions: Severe acute respiratory syndrome coronavirus 2
Activity calls are given as the source filed them. No cut-off for these calls is given here.
Please state which outcome applies, choosing from active, inactive

# count of solved cases: 3
{"compound": "CC(C)C[C@H](NC(=O)OCc1ccccc1)C(=O)N[C@@H](C[C@@H]1CCNC1=O)C(O)S(=O)(=O)O (some centres undefined)", "answer-label": "active"}
{"compound": "CC(C)C[C@H](NC(=O)OCc1cccc(F)c1)C(=O)N[C@@H](Cc1cscn1)C(O)S(=O)(=O)O (some centres undefined)", "answer-label": "active"}
{"compound": "COc1cccc2[nH]c(C(=O)N[C@@H](CC(C)C)C(=O)N[C@@H](Cc3cscn3)C(O)S(=O)(=O)O)cc12 (some centres undefined)", "answer-label": "active"}

Now consider a different compound.
[in] Would you mind telling me which call this test gave CC(C)C[C@H](NC(=O)[C@@H]1O[C@H]1C(=O)O)C(=O)NCCCCN=C(N)N ?
[out] inactive

----------
test system: SARS-CoV-2; assay: Antiviral activity against SARS-CoV-2 CANADA/VIDO 01/2020 infected in A549-hACE2-TMPRSS2 cells assessed as plaque reduction pretreated with virus for 1 hr followed by compound addition and measured after 48 hrs by crystal violet staining based assay; assay type: functional, organism-based; conditions: Severe acute respiratory syndrome coronavirus 2, CANADA/VIDO 01/2020, A549-hACE2-TMPRSS2
Field: pEC50. Provide a value for each of the molecules that follow.
One number for each entry, as −log10 of the molar value.

Return reported pEC50 values for all items listed beneath this line.
1. CC(C)C[C@H](NC(=O)OCc1cccc(F)c1)C(=O)N[C@@H](Cc1cscn1)C(O)S(=O)(=O)O (some centres undefined)
2. COc1cccc2[nH]c(C(=O)N[C@@H](CC(C)C)C(=O)N[C@@H](CC3CCC3)C(O)S(=O)(=O)O)cc12 (some centres undefined)

[out]
1. 5.09
2. 4.66

[in] Tell us which pEC50 value is on record for COc1cccc2[nH]c(C(=O)N[C@@H](CC(C)C)C(=O)N[C@@H](Cc3cscn3)C(O)S(=O)(=O)O)cc12 (some centres undefined)
[out] 6.29
